assayProcedure: NCI Yeast Anticancer Drug Screen. Data for the rad50 strain (AID 155);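 note: 0% = growth of vehicle-only cultures of the same strain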
testContext: S. cerevisiae rad50 strain growth inhibition; at 50.0 µM (retest, dose inferred, filed as 5.0)
Experimental: Growth inhibition of yeast strains with defined genetic alterations is measured as a screen for potential anti-cancer activity. Selected strains with alterations in DNA damage repair or cell cycle control were exposed to compounds and growth inhibition was measured relative to vehicle treated controls. The strain used in this assay is rad50
About 79,000 compounds went through this panel and 15% of them were active in at least one assay; those are over-represented in the sample as a whole. The source made the active and inactive calls. Cut-off read from the data, not from the text of the source: active = growth inhibition above about 70%; inactive = the rest. Where a SMILES comes first, the peptide text is derived from it. The star is where a group is joined. Trt = c1ccc(C(c2ccccc2)(c2ccccc2)*)cc1; Cbz = O=C(OCc1ccccc1)*
Outcome codes: yes (1) = active, no (0) = inactive

O=C1C(=C2C(=O)c3ccccc3[N+]2=O)N([O-])c2ccccc21    no (0)
CCC(CC=C(C)C)(CC=C(C)C)c1ccncc1 (tested in a mixture with another compound)    yes (1)
c1ccc2c(c1)CCc1[nH]c3c(c1-2)-c1ccccc1CC3    yes (1)
COc1cccc(/C=N/N(C)C)c1O    no (0)
Cc1c(C(=O)N(CCO)CCO)[n+](=O)c2ccccc2n1[O-]    no (0)
COc1cc(C(c2cc3c(cc2OC(C)=O)OCO3)C(C(C)=O)C(C)=O)cc(OC)c1OC(C)=O (stereo not drawn)    no (0)
Nc1ccc(Cl)c2ccccc12    no (0)
c1ccc2c(B(c3cccc4ccccc34)c3cccc4ccccc34)cccc2c1    yes (1)
COc1cc(-c2nn3c(=O)n(-c4ccc(Cl)cc4)c(=O)nc3s2)cc(OC)c1OC    no (0)
O=C(NC(=O)C(F)(F)F)Nc1ccc(Cl)cc1    no (0)
COc1ccccc1C1C2=C(COC2=O)OC(C)(C)Oc2cc3c(cc21)OCO3 (stereo not drawn)    yes (1)
CC(=O)Oc1ccc(/C=C/c2ccncc2)cc1    no (0)
CC1(C)CC(=O)C2=C(C1)OC1=C(CC(C)(C)CC1=O)C2c1ccccc1[N+](=O)[O-] (stereo not drawn)    no (0)
Cc1ccc(C2(O)CC(c3ccc([N+](=O)[O-])o3)=NN2C(=O)COc2ccc(Cl)cc2)cc1 (stereo not drawn)    no (0)
S=C(Nc1ccc(Br)c(Cl)c1)SCc1ccc2c(c1)OCO2    yes (1)
COc1ccccc1C1c2cc3c(cc2OC2(OC)COC(=O)C12)OCO3 (stereo not drawn)    no (0)
C=C(Cl)C(=NC(C)(C)C)Nc1ccccc1Cl    no (0)
NC(=S)N1N=C2c3ccccc3CC[C@H]2[C@@H]1c1cccs1    no (0)
O=C(O)CCC/C(=N\Nc1ccccc1)C(=O)O    yes (1)
O=[N+]([O-])c1ccc(O)c(/C=N\NC(=S)Nc2ccc3cn[nH]c3c2)c1    no (0)
CN(C)C(=S)/N=c1\ss/c(=N\C(=S)N(C)C)n1-c1cccc(Cl)c1    no (0)
Cc1ccc(C(=O)/C=C/c2ccco2)c(C)c1    no (0)
O=C(c1ccccc1)c1ccc(OCC2CO2)cc1 (stereo not drawn)    yes (1)
CCCCCCCCCCCCNCc1ccc(Cl)c(Cl)c1    yes (1)
CCOC(=O)C(=Cc1ccccc1Br)C(=O)OCC    yes (1)
CC(=O)NC1CCCCC1CC1CCCCC1 (stereo not drawn)    no (0)
CCOC(=O)CCC(NC(=O)C(CSC(c1ccccc1)(c1ccccc1)c1ccccc1)NC(=O)OCc1ccccc1)C(=O)NC(CCC(=O)OCC)C(=O)NC(CCC(=O)OCC)C(=O)NC(CCC(=O)OCC)C(=O)NC(CSC(c1ccccc1)(c1ccccc1)c1ccccc1)C(=O)OC (stereo not drawn) (Cbz-C(Trt)E(OEt)E(OEt)E(OEt)E(OEt)C(Trt)-OMe; configuration not given here)    no (0)
N#Cc1ccc(OC(=O)Nc2c(Cl)cccc2Cl)cc1    no (0)
O=C1CC(=Nc2ccc([N+](=O)[O-])cc2)NN1c1c(Cl)cc(Cl)cc1Cl    no (0)
c1cc2c3c(c1)[I+]c1cccc(c1-3)[I+]2    no (0)
CCN(CC)CCOc1c(Cl)c(Cl)c(Cl)c(Cl)c1Cl    no (0)
N#C/C(=C1C=C/C(=N/O)C=C/1Cl)c1ccccc1    no (0)
Oc1ccc2ccccc2c1/C=N\Sc1ccccc1    yes (1)

====

# growth inhibition per entry
assayProcedure: NCI Yeast Anticancer Drug Screen. Data for the rad50 strain (AID 155);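 note: 0% = growth of vehicle-only cultures of the same strain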
testContext: S. cerevisiae rad50 strain growth inhibition; at 50.0 µM; stronger effect = higher value
About 79,000 compounds went through this panel and 15% of them were active in at least one assay; those are over-represented in the sample as a whole. The source made the active and inactive calls. Cut-off read from the data, not from the text of the source: active = growth inhibition above about 70%; inactive = the rest.
measuredQuantity: growth inhibition

Cc1ccc(SSCCCCS(=O)O)cc1    65.7% (inactive)
Oc1c(Cl)ccc2cccnc12    92% (active)
N#CC(c1c(Cl)cccc1N1CCCCC1)N1CCCCC1 (centres undefined)    86.9% (active)
C=CC(=O)Oc1ccccc1/C=C/C(=O)CCCCCC    96.5% (active)

====

Parameter growth inhibition: see the listing below.
assayProcedure: NCI Yeast Anticancer Drug Screen. Data for the mlh1 rad18 strain (AID 175)
testContext: S. cerevisiae mlh1 rad18 strain growth inhibition; at 50.0 µM (retest, dose inferred, filed as 5.0); stronger effect = higher value
The panel holds about 79,000 compounds, 15% with a hit somewhere; the sample as a whole holds those more often.
measuredQuantity: growth inhibition (%)

N#Cc1ccc2nc3ccc(N)cc3nc2c1    96
Cc1ccc(S(=O)(=O)c2cc(O)c(O)c3ccc(Br)cc23)cc1    97
CCS(=O)(=O)/C=C/c1ccncc1    11
CCOC(=O)/C(=C/O)c1c[nH]c2ccccc12    96
C[C@]12C/C(=C/C(F)(F)F)C(=O)C[C@@H]1CC[C@@H]1[C@@H]2CC[C@]2(C)[C@@H](C(=O)O)CC[C@@H]12    96
OCCCCCCCCCl    9
C1Cc2c3c4c(c5c2C(C1)CCC5)CCCC4CCC3    10
O=S(=O)(NC(=S)Nc1ccccc1)c1ccc(Br)cc1    68
Oc1ccc(C2(c3ccc(O)c(Cl)c3)CC3CCC2C3)cc1Cl (stereo not drawn)    97
CC(C)(C)c1cc(C2c3cc4c(cc3OC(O)(CO)C2C(=O)O)OCO4)cc(C(C)(C)C)c1O (stereo not drawn) (tested in a mixture with another compound)    73
CCOC(=O)C1=C(C)NC2=C(C(=O)N(c3ccccc3)C2c2ccccc2)C1c1ccccc1 (stereo not drawn)    8
COc1ccc2ccc(=O)oc2c1CC=C(C)C    98
N#CC1=C(N)OC(/C=C/c2ccccc2)=C(C#N)C1c1ccccc1 (stereo not drawn)    86

====

assayProcedure: NCI Yeast Anticancer Drug Screen. Data for the cln2 rad14 strain (AID 165);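 note: 0% = growth equal to vehicle treated cultures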
testContext: S. cerevisiae cln2 rad14 strain, at 5.0 µM (retest, dose inferred, filed as 0.5)
The panel holds about 79,000 compounds, 15% with a hit somewhere; the sample as a whole holds those more often. Calls of active or inactive are those of the source. Rule as the data show it: active = growth inhibition above about 70%; inactive = the rest.
Outcomes: active, inactive

O=C(O)C(Cc1ccccc1)N=Cc1ccc(O)cc1 (stereo unspecified)    inactive
COC12C(COC(N)=O)C3=C(C(=O)C(C)=C(N)C3=O)N1CC1C2N1C(=O)/C=C/c1ccccc1 (stereo unspecified)    inactive
CCN(CC)c1ccc(Cl)c2c1C(O)(C(C)C)C2(C)C (stereo unspecified)    inactive
CC1=NN(c2nc(N)nc(NS(=O)(=O)c3cc(C)c(Cl)cc3S)n2)C(C)(C)C1    inactive
C=C1C(=O)C23C(O)C1CC[C@H]2C12CCCC(C)(COC(C)=O)[C@H]1[C@H](O)[C@]3(O)OC2 (stereo partly specified)    active
C/C(O)=C(/C=N\C(=S)Nc1ccc(Cl)c(Cl)c1)C(=O)Nc1ccccc1C    inactive

====

assayProcedure: NCI Yeast Anticancer Drug Screen. Data for the mec2-1 strain (AID 157)
testContext: S. cerevisiae mec2-1 strain, at 50.0 µM
The panel holds about 79,000 compounds, 15% with a hit somewhere; the sample as a whole holds those more often. The source made the active and inactive calls. Rule as the data show it: active = growth inhibition above about 70%; inactive = the rest.
Classes used: 1.0 for active, 0.0 for inactive

C(=NCCc1ccccc1)c1ccccc1B1OB(c2ccccc2C=NCCc2ccccc2)OB(c2ccccc2C=NCCc2ccccc2)O1    1.0
CC(=O)C(C(=O)CCSCCO)C(SCCO)c1ccc(Cl)c(Cl)c1 (stereo not drawn)    1.0
O/N=C1/C(=C/c2ccc3c(c2)OCO3)CCCC1C(NO)c1ccc2c(c1)OCO2 (stereo not drawn)    1.0
CN(C)C1CCC2C(=C1OC(=O)c1ccccc1)C=Cc1ccccc12 (stereo not drawn)    0.0
O=C(Nc1cccc(Cl)c1)c1ccc([N+](=O)[O-])cc1    0.0
CC1(C)CCCC12C=NCC2 (stereo not drawn)    0.0
Cc1noc(NS(=O)(=O)c2ccc(NC(=S)/N=C/c3c(O)[nH]c(=O)[nH]c3=O)cc2)c1C    0.0
CCC(c1ccccc1)N1C(=O)c2ccccc2S1(=O)=O (stereo not drawn)    0.0
CC(C)OCc1cccc2ccnc(COC(C)C)c12    0.0
CCCNCC/C=C/[Si](C)(C)C    1.0
COc1nc2nc(SC(CC(=O)O)C(=O)c3ccc(Cl)cc3)[nH]c2c2ccccc12 (stereo not drawn)    0.0
O=C1C(Cl)C(c2cc(Br)cc(Br)c2O)N1n1cnc2ccccc2c1=O (stereo not drawn)    1.0
O=C(C1=Cc2ccccc2OC1)N1CCN(c2cccc(Cl)c2)CC1    0.0
